assay: reduced mouse 2C T cell binding to pMHC/ICAM-1 vesicles – MLPCN validation set, flow cytometry, LFA-1/ICAM-1 modulator project, pilot screen (AID 2523); details: 2C mouse CD8+ T cells, at 7 µM, stronger effect = lower value; measured here: CD8+/vesicle+ event percentage
result type: double positive events

Solved entries:
N/C(=N\OC(=O)CCCOc1ccc(Cl)cc1Cl)c1ccccn1: 59.3%
O=C(N/N=C\c1cc([N+](=O)[O-])ccc1N1CCOCC1)c1ccccn1: 59.8%
CCC(C)NCCOCCOc1ccc(Cl)cc1Br (stereo not given): 61.4%

Quick one: double positive events for Nc1ccc2cn[nH]c2c1 ? 60.8%

Quick one: double positive events for CCOC(=O)c1oc2cc(O)cc(C)c2c(=O)c1-c1cscn1 ? 58.7%

---

biological target: GTPase HRas (Homo sapiens) (UniProt P01112); assay: Ras wt fluorescent GTP loading blockade – biochemical, wildtype, multiplex bead flow cytometry, dose response (AID 1335); conditions: bead-based flow cytometry, Bodipy-GTP binding to GST-Ras; at 100 µM (top of the series) unless noted
Sequence (P01112 whole entry, looked up): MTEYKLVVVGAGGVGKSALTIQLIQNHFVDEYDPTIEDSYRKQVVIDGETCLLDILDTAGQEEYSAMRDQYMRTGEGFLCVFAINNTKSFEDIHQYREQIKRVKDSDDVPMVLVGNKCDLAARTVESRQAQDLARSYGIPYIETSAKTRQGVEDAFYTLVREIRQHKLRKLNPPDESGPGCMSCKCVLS
result type: GTP binding, percent of control (%)
Entry rule: numbers only, all in %.

Solved entries:
CC(C)(C)NC(=O)CSc1nccn1Cc1ccccc1: 78.6
COc1cc(-c2cc(-c3ccc(O)cc3)nc(N)c2C#N)ccc1O: 70.9
CN(C)c1ccc(/C=C/c2ccc3c4ccccc4ccc3[n+]2-c2ccccc2)cc1: 69.7
Cc1ccc(-n2c(=O)cc(N3CCN(C(=O)c4ccco4)CC3)[nH]c2=O)cc1: 81.3

Proceeding to the next molecule to report its GTP binding, percent of control.
Query the reported GTP binding, percent of control for GTPase HRas (Homo sapiens) (UniProt P01112); item: Nc1c([N+](=O)[O-])cc(-c2cnc[nH]2)cc1[N+](=O)[O-] 81.1

---

assay: TOR pathway GLN3 branch reporter MEP2-GFP changes – S. cerevisiae, multiplex flow cytometry, primary screen (AID 1867);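 note: median GFP channel fluorescence of barcode-gated MEP2-GFP cells measured by flow cytometry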; settings: S. cerevisiae MEP2-GFP strain, 3 h, at 10 µM, stronger effect = higher value, 100% means same as DMSO wells
Inconclusive results are not listed.
# key: entry, value: GFP response vs DMSO
Entry rule: numbers only, all in %.

Solved entries:
COc1c2ccoc2nc2c(OC)cccc12: 101
CC(=O)[C@@]1(O)CC[C@H]2[C@@H]3C[C@H](C)C4=CC(=O)CC[C@]4(C)[C@H]3CC[C@@]21C: 114
Cc1ccc(/C=N/NC(=O)C2(C)CC2(Br)Br)cc1 (stereo not drawn): 98.7
COC(=O)c1ccc2c(c1)C(=O)/C(=C/c1ccc(O)cc1)O2: 109
COc1ccc(/C=C/C(=O)NC(=S)NN2CCCCC2c2cccnc2)cc1 (stereo not drawn): 99.7

Quick one: GFP response vs DMSO for COC(=O)C1=C(C)NC(C)=C(C(=O)OCCN(C)Cc2ccccc2)C1c1cccc([N+](=O)[O-])c1 (stereo not drawn) ? 108

Quick one: GFP response vs DMSO for CCC(C)NCCOc1ccccc1C (stereo not drawn) ? 101

---

# key: entry, value: inhibition
target: ATP-binding cassette sub-family B member 6 (Homo sapiens) (UniProt Q9NP58); assay: blockers of ABCB6-driven porphyrin uptake – K562-ABCB6 cells, flow cytometry, validation set, pilot screen (AID 588550); settings: K562-ABCB6 porphyrin accumulation, 1 h, at 10 µM, stronger effect = higher value;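 note: 0% = DMSO wells and 100% = benzethonium chloride 70 µM positive control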
Sequence (Q9NP58 whole entry, looked up): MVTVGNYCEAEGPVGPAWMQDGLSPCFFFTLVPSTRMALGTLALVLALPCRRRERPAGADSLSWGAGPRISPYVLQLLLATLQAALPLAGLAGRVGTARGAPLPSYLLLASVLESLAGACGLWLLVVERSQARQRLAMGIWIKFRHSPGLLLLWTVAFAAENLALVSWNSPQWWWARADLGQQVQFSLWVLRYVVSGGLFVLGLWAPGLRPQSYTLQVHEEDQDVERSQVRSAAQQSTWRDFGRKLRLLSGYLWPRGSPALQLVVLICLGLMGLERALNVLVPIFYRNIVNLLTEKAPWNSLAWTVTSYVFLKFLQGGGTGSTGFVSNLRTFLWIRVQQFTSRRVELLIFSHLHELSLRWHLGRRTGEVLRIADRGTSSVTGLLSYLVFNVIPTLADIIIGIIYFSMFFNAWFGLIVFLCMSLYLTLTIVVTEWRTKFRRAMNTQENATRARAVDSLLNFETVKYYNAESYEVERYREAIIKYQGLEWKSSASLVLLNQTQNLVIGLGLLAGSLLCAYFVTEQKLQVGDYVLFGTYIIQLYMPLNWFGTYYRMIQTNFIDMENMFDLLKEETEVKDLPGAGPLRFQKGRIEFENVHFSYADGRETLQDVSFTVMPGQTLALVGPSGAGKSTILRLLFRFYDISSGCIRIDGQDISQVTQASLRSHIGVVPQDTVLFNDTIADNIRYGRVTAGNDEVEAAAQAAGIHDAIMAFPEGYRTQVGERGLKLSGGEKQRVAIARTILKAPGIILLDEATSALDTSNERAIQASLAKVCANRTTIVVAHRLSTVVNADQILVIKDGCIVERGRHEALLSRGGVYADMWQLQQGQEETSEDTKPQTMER
Entry rule: numbers only, all in %.

COc1cc(CNCCc2ccccc2F)ccc1OCC(=O)N1CCCCC1: 2
COc1ccc(C=O)c(OC)c1: -6
COc1ccc2[nH]c3c(c2c1)CCNC3C1CC=C(C)CC1 (configuration not stated): -1

Quick one: inhibition for COc1ccccc1NC(=O)Cn1c(C)cc(=O)c2cccc(OC)c21 ? 6

Quick one: inhibition for CC(C)C(=O)Nc1c(O)c2ccccc2[nH]c1=O ? 11

Quick one: inhibition for CC(=O)[C@@]1(O)CC[C@H]2[C@@H]3CCC4=CC(=O)CC[C@]4(C)[C@H]3[C@@H](O)C[C@@]21C ? 10

Quick one: inhibition for COCC(C)NC(=O)c1ccc(CN2CCc3ccccc3C2)cc1 (configuration not stated) ? 2

Quick one: inhibition for O=c1cc(CN2CCN(c3cccc(Cl)c3)CC2)c2cc(O)c(-c3ccccc3)cc2o1 ? 11

Quick one: inhibition for COc1ccc(OC)c(S(=O)(=O)N2CCCc3ccccc32)c1 ? 24

Quick one: inhibition for CCOc1cc(C=O)ccc1OCCSc1ccc(C)cc1 ? 5

Quick one: inhibition for Cc1ccc2c(c1)C1(C(=O)N2)N2CCCC2C(C(=O)c2ccc3ccccc3c2)C12C(=O)Nc1ccccc12 (configuration not stated) ? -11

---

assay: AML differentiation inducers, ER-HoxA9 marrow cells – cell-based, GFP/MAC1 double positive, flow cytometry, validation set, primary screen (AID 588685); conditions: stronger effect = higher value, normalized: vehicle 0, fulvestrant 100;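 note: compound exposure lasts four days before antibody staining and flow analysis; 0% = DMSO wells and 100% = 5 µM fulvestrant positive control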
# key: entry, value: differentiation response
Entry rule: numbers only, all in %.

Cc1ccc2nc(NC3=NC(CC(=O)O)C(=O)N3)nc(C)c2c1 (stereo not given): 9.04
C1COC(NC(C2CC2)C2CC2)=N1: 0.82
COc1cccc(/C=C/C(=O)c2c(O)cc(C)oc2=O)c1O: 5.6
O=C(N1CCCC1)C12CC3CC(C1)CC(C(=O)N1CCCC1)(C3)C2: -7.2

Proceeding to the next compound to report its differentiation response.
Quick one: differentiation response for O=c1ccc2c(o1)/C(=C/C=C(Cl)Cl)CCC2 ? -10.4

---

test: Nile Red efflux blockade in pump-expressing yeast – validation compound set, multiplex, phenotypic, pilot screen (AID 588506);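 note: Nile Red retained in cells so higher fluorescence means more efflux inhibition; 0 = negative control wells and 1 = enniatin B 25 µM full block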; details: S. cerevisiae pump-expressing triplex, Nile Red efflux flow cytometry; at 10 µM; stronger effect = higher value; the pumps come from Candida albicans
result type: efflux inhibition (fraction of control)
Give the figure only, with no unit attached.

O=C(N/N=C/c1ccc([N+](=O)[O-])o1)c1ccc(O)cc1: 0.12
COc1ccc(OC)c(C(=O)c2coc3ccc(O)cc23)c1: -0.04
O=C(NC(=S)N1CCCCC1)c1cccnc1: -0.07

Proceeding to the next molecule to report its efflux inhibition (fraction of control).
Quick one: efflux inhibition (fraction of control) for CCCCCCCCCC(=O)OCC(O)CO (centres undefined) ? 0.18

---

# key: entry, value: binding (% of control)
test system: anti-desmoglein-3 scFv antibody binding to human DSG3; test: blockers of pathogenic pemphigus antibody–desmoglein-3 binding – biochemical, validation compound set, bead-based, flow cytometry, pilot screen (AID 588368); conditions: Protein G beads, DSG3-Fc, scFv-GFP binding, at 10 µM, stronger effect = lower value;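 note: signal is the median channel fluorescence of bead-bound GFP antibody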
Entry rule: numbers only, all in %.

Quick one: binding (% of control) for O=c1[nH]c(=O)n([C@H]2C[C@H](O)[C@@H](CO)O2)cc1C(F)(F)F ? 100

Quick one: binding (% of control) for O=C(O)C1CSC(c2ccc3c(c2)OCO3)N1 (stereo not drawn) ? 105

Quick one: binding (% of control) for FC(F)(F)c1ccc(-c2noc(CN3CCCN(C4CCCCC4)CC3)n2)cc1 ? 103

---

# key: entry, value: response
target: Beta-2 adrenergic receptor (Homo sapiens); assay: agonist-induced loss of surface beta2AR – cell-based, FAP fluorogen, flow cytometry, validation set, pilot screen (AID 504459); settings: Am2.2-beta2AR cells, at 10 µM, stronger effect = higher value;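 note: agonist-driven loss of surface beta2AR via internalization measured by FAP dye flow cytometry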
Entry rule: numbers only, all in %.

Solved entries:
CCc1cc2c(=O)c(-c3nc(C)cs3)coc2cc1OC(C)C(=O)NCCO (stereo not drawn): 8.19
COc1ccc(/C=C\c2nc(=O)c3ccccc3o2)cc1: 2.1
CC(OC(=O)c1cc(=O)[nH]c2ccccc12)C(=O)c1ccccc1 (stereo not drawn): 1.78
NC(N)=N/N=C/c1cccc(Cl)c1Cl: 22.4
Cc1ccc2c(c1)C1(C(=O)N2)N2CCCC2C(C(=O)c2ccc3ccccc3c2)C12C(=O)Nc1ccccc12 (stereo not drawn): 3.54

Quick one: response for O=C1CC(c2ccc(OCCCCCOc3ccc(C4CC(=O)NC4=O)cc3)cc2)C(=O)N1 (stereo not drawn) ? 4.67

Quick one: response for O=C(CCC1CCCN(C(=O)c2ccsc2)C1)NCc1ccc(F)c(F)c1 (stereo not drawn) ? -9.44

Quick one: response for COc1ccc(C(C)N2CC34C=CC(O3)C(C(=O)OCC(C)C)C4C2=O)cc1 (stereo not drawn) ? -2.15

---

molecular target: Integrin beta-1 (Homo sapiens) + Integrin alpha-4 (Homo sapiens) (UniProt P13612+P05556); experiment: alpha4beta1 integrin LIBS antibody binding reduction – U937 cells, HUTS-21 mAb, flow cytometry, validation set, VLA-4 allosteric modulator project, pilot screen (AID 2674); conditions: HUTS-21 LIBS mAb binding, at 6.7 µM, stronger effect = higher value, binding induced by LDV ligand;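 note: antibody binding induced by the VLA-4 ligand LDV present at three times its Kd; 0% = LDV ligand with antibody and no compound and 100% = antibody without LDV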
Sequence (P05556 whole entry, looked up): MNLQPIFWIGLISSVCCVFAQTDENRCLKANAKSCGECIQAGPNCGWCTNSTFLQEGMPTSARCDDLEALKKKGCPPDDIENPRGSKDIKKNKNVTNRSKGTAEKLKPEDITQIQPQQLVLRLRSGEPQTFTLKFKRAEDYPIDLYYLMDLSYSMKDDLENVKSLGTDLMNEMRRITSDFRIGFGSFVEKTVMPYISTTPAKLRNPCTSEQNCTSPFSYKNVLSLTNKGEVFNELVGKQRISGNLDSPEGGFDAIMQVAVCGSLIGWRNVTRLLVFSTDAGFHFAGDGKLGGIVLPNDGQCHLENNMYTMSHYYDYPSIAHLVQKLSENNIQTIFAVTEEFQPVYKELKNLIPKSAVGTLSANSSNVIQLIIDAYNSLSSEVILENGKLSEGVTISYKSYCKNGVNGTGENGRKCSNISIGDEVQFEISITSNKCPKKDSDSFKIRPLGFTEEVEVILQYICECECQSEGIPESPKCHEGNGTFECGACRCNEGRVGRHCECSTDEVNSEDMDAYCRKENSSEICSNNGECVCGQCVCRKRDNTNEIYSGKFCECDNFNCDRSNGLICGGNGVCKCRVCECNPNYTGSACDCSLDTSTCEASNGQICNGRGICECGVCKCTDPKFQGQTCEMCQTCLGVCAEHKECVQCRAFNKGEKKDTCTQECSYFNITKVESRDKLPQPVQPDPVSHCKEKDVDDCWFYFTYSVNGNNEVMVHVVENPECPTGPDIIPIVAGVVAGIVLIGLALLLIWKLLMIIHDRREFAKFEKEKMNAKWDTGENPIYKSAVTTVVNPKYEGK
Sequence (P13612 whole entry, looked up): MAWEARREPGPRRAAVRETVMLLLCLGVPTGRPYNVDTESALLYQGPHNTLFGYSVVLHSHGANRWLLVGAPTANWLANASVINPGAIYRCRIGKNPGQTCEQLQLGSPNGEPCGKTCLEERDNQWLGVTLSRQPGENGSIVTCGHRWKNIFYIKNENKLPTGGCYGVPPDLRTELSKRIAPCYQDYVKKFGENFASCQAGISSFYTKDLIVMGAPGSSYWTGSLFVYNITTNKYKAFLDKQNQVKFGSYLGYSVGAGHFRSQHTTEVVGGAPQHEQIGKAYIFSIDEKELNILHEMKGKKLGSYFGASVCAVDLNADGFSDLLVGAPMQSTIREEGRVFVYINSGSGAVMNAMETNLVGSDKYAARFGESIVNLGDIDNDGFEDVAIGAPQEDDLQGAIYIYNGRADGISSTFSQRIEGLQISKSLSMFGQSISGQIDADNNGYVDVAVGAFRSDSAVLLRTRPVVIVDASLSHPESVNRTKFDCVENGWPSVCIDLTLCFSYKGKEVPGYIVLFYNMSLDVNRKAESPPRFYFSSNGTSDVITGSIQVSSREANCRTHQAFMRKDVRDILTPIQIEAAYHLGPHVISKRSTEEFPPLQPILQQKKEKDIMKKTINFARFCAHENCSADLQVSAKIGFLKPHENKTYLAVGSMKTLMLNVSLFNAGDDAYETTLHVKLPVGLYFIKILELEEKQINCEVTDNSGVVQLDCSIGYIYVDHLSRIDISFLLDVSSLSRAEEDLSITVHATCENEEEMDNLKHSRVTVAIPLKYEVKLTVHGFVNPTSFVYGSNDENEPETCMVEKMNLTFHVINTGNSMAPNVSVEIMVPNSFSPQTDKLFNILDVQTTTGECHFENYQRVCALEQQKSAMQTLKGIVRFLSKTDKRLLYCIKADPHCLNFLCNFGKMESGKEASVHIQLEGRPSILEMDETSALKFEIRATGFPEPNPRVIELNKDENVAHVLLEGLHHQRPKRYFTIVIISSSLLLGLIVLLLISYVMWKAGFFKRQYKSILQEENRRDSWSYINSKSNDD
# key: entry, value: inhibition
Entry rule: numbers only, all in %.

Solved entries:
C/C=C/c1ccc(OCCCCN2CC(C)CC(C)C2)c(OC)c1 (configuration not stated): 8.88
COc1cc2cc(C)nc(Cc3cccc4ccccc34)c2cc1OC: 1.12
COc1cccc2c(O)cc(=O)n(C)c12: 3.67
CCN(CC)c1ccc(C2=NNC(=O)CC2C)cc1[N+](=O)[O-] (configuration not stated): -15.4
COc1ccccc1Oc1c(C)oc2c(CN3CCN(CCO)CC3)c(O)ccc2c1=O: -11.8
COc1cc(C(=O)NCCc2c[nH]c3ccccc23)ccc1OCc1c(C)noc1C: -15.4

Quick one: inhibition for CC(=O)OC[C@H]1O[C@@H](Sc2cccc3cccnc23)[C@H](OC(C)=O)[C@@H](OC(C)=O)[C@H]1OC(C)=O ? -5.38

Quick one: inhibition for COc1ccc2c(c1)c(=O)oc1cc3occ(C(C)(C)C)c3cc12 ? 9.95

Quick one: inhibition for O=C(Oc1ccccc1)Oc1ccc2c(c1)oc(=O)c1ccccc12 ? -6.15

This collection of values is drawn from PubChem BioAssay.
